Values compiled from patent US9067949B2.

Measured melting point by item

Some solved cases for reference:
Cl.O=S(=O)(c1ccccc1)c1ccc2c3c(oc2c1)CCCNC3 ... 221 to 225 °C
Cc1ccc(S(=O)(=O)c2ccc3oc4c(c3c2)CNCC4)cc1.Cl ... 265 to 270 °C
Cl.O=S(=O)(c1ccccc1)c1ccc2c3c(oc2c1)CCNC3 ... 235 to 238 °C
Cl.O=S(=O)(c1ccccc1)c1ccc2oc3c(c2c1)CNCCC3 ... 211 to 216 °C
Cl.[O-][S+](c1ccccc1)c1cc(Cl)c2oc3c(c2c1)CNCC3 (stereo not drawn) ... 264 to 272 °C (dec.)
Cl.Clc1cc(Sc2ccccc2)cc2c3c(oc12)CCNC3 ... 241 to 248 °C (dec.)
COc1ccc(S(=O)(=O)c2ccc3oc4c(c3c2)CNCC4)cc1.Cl ... 270 to 272 °C
Cl.O=S(=O)(c1cccc(Cl)c1)c1ccc2c3c(oc2c1)CC1CCC3N1 (stereo not drawn) ... 193 to 197 °C

Moving on to another compound below.
### Prompt Give reported melting point value for "Cl.O=S(=O)(c1cccc(Cl)c1)c1ccc2c3c(oc2c1)CCNC3"
### Response 288 to 292 °C

----------
measured property: melting point

Some solved cases for reference:
Cl.O=S(=O)(c1cccc(F)c1)c1ccc2oc3c(c2c1)CNCC3 ... 262 to 272 °C (dec.)
Cl.OC(c1ccccc1)c1cc(Cl)c2oc3c(c2c1)CNCC3 (centres unmarked) ... 260 °C (dec.)
CC1Cc2oc3c(Cl)cc(S(=O)(=O)c4ccccc4)cc3c2CN1.Cl (single isomer, unassigned; (-)) [Example 83a] ... 293 °C (dec.)

### Prompt Give reported melting point value for "Cc1cn(S(=O)(=O)c2ccc3oc4c(c3c2)CNCC4)c2ccccc12.Cl"
### Response 293 to 296 °C

### Prompt Give reported melting point value for "Cl.O=S(=O)(c1cccc(Cl)c1)c1ccc2oc3c(c2c1)CNCC3"
### Response 245 to 252 °C (dec.)

### Prompt Give reported melting point value for "Cl.O=S(=O)(c1ccc2ccccc2c1)c1ccc2oc3c(c2c1)CNCC3"
### Response 267 to 270 °C

### Prompt Give reported melting point value for Cl.O=S(=O)(c1ccc2oc3c(c2c1)C1CCC(C3)N1)n1ccc2ccc(F)cc21 (centres unmarked)
### Response 184 to 187 °C

### Prompt Give reported melting point value for "Cl.N#Cc1ccc(S(=O)(=O)c2ccc3oc4c(c3c2)CNCC4)cc1"
### Response 295 to 301 °C (dec.)

### Prompt Give reported melting point value for CC(O)Cc1cc(S(=O)(=O)c2ccccc2)cc2c3c(oc12)CCNC3.Cl (centres unmarked)
### Response 283 to 284 °C

### Prompt Give reported melting point value for Cc1cn(S(=O)(=O)c2ccc3oc4c(c3c2)C2CCC(C4)N2)c2ccccc12.Cl (centres unmarked)
### Response 195 to 199 °C

### Prompt Give reported melting point value for "Cl.O=S(=O)(c1ccccc1)c1cc(Cn2cccn2)c2oc3c(c2c1)CNCC3"
### Response 145 to 148 °C

----------
# system tested: human 5-HT6 receptor (Homo sapiens (Human), UniProt P50406)
# Sequence (P50406 whole entry): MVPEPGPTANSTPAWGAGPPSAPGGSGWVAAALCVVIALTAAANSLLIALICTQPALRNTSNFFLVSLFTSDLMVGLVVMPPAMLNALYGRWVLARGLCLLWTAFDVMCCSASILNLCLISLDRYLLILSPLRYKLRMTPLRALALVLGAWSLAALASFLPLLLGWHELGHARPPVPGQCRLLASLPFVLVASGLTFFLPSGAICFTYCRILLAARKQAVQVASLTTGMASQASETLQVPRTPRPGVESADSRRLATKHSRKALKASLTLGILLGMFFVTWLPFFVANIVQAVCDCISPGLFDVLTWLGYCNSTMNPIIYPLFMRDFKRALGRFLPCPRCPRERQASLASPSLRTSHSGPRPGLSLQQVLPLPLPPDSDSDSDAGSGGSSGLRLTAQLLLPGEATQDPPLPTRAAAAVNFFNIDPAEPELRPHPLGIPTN
# assay comment: 5-HT6 radioligand binding assay (SPA format, [N-methyl-3H]-LSD)
# study conditions: human 5-HT6 receptor membranes, 10 nM [N-methyl-3H]-LSD; Ki by Cheng-Prusoff; read-out: human 5HT6 Ki
Structures can show the parent of a compound that is named as a salt.
measured property: pKi
Please express pKi as -log10 of the molar concentration.

Some solved cases for reference:
O=S(=O)(c1ccccc1)c1cc(Cl)c2oc3c(c2c1)CC(O)CC3 (racemic) [Example 97] ... 8.77
Cl.O=S(=O)(c1cccc(C(F)(F)F)c1)c1ccc2c3c(oc2c1)CCNC3 [Example 63, hydrochloride] ... 8.68
O=S(=O)(c1ccccc1)c1cc(-c2cc[nH]n2)c2oc3c(c2c1)CNCC3 [Example 224] ... 8.35
Cc1cn(S(=O)(=O)c2ccc3oc4c(c3c2)C2CCC(C4)N2)c2ccccc12.Cl (centres unmarked) [Example 58, hydrochloride] ... 7.80
O=S(=O)(c1cc(Cl)c2oc3c(c2c1)CNCC3)c1csc2ccccc12 [Example 133] ... 9.59
O=S(=O)(c1cccc(C(O)C(F)(F)F)c1)c1cc(Cl)c2oc3c(c2c1)CNCC3 (centres unmarked) [Example 132] ... 8.48
Cn1ncc2cc(S(=O)(=O)c3cc(Cl)c4oc5c(c4c3)CNCC5)ccc21 [Example 124] ... 7.43

Moving on to another compound below.
### Prompt Give reported pKi value for O=S(=O)(c1ccccc1)c1cc(-n2cccn2)c2oc3c(c2c1)CNCC3 [Example 76, hydrochloride]
### Response 8.03

----------
# system tested: human 5-HT6 receptor (Homo sapiens (Human), UniProt P50406)
# assay comment: 5-HT6 radioligand binding assay (SPA format, [N-methyl-3H]-LSD)
# study conditions: human 5-HT6 receptor membranes, 10 nM [N-methyl-3H]-LSD; Ki by Cheng-Prusoff; read-out: human 5HT6 Ki
Structures can show the parent of a compound that is named as a salt.
Could you mark each record Condition met if its Ki falls strictly under 10 nM, and Condition not met if it equals or exceeds it?

### Prompt Please check: Ki for "Cc1cc(S(=O)(=O)c2cccc(F)c2)cc2c3c(oc12)CCNC3" , strictly under 10 nM or not?
### Response Condition met

### Prompt Please check: Ki for "O=S(=O)(c1ccc2c(c1)COCC2)c1cc(Cl)c2oc3c(c2c1)CNCC3" , strictly under 10 nM or not?
### Response Condition not met

### Prompt Please check: Ki for Cl.O=S(=O)(c1cc(Cl)cc(Cl)c1)c1ccc2oc3c(c2c1)CNCC3 [Example 38, hydrochloride] , strictly under 10 nM or not?
### Response Condition not met

### Prompt Please check: Ki for "CC(C)(O)c1ccc(S(=O)(=O)c2cc(Cl)c3oc4c(c3c2)CNCC4)cc1" , strictly under 10 nM or not?
### Response Condition met

### Prompt Please check: Ki for O=S(=O)(c1cccc(F)c1)c1ccc2c3c(oc2c1)CC1CCC3N1 (centres unmarked) [Example 66, hydrochloride] , strictly under 10 nM or not?
### Response Condition not met

### Prompt Please check: Ki for "COc1cc(S(=O)(=O)c2cccc(F)c2)cc2c3c(oc12)CCNC3" , strictly under 10 nM or not?
### Response Condition met

### Prompt Please check: Ki for "CC(C)(O)c1cc(S(=O)(=O)c2ccccc2)cc2c3c(oc12)CCNC3" , strictly under 10 nM or not?
### Response Condition not met

### Prompt Please check: Ki for "O=S(=O)(c1ccccc1)c1cc(Cl)c2oc3c(c2c1)CN(C1COC1)CC3" , strictly under 10 nM or not?
### Response Condition not met

----------
Measured melting point by item

Some solved cases for reference:
Cl.O=S(=O)(c1ccc(Cl)cc1)c1ccc2oc3c(c2c1)CNCC3 ... 302 to 305 °C
CC1CNCc2c1oc1c(Cl)cc(S(=O)(=O)c3ccccc3)cc21.Cl (stereo not drawn) ... 291 to 292 °C (dec.)
Cl.O=S(=O)(c1ccccc1)c1cc(Cl)c2oc3c(c2c1)C(CO)NCC3 (stereo not drawn) ... 185 to 187 °C
Cl.Cn1cc(S(=O)(=O)c2cc(Cl)c3oc4c(c3c2)CNCC4)c2ccccc21 ... 262 to 264 °C
CC1(C)NCCc2oc3c(Cl)cc(S(=O)(=O)c4ccccc4)cc3c21.Cl ... 282 to 287 °C (dec.)
COc1cc(S(=O)(=O)c2ccccc2)cc2c3c(oc12)CCNC3.Cl ... 197 to 202 °C
Cl.O=S(=O)(c1ccc(Cl)cc1)c1cc(Cl)c2oc3c(c2c1)CNCC3 ... 282 to 284 °C
Cl.O=S(=O)(c1cccc(F)c1)c1cc(Cl)c2oc3c(c2c1)CNCC3 ... 276 to 278 °C
Cl.O=S(=O)(c1cc(Cl)cc(Cl)c1)c1ccc2oc3c(c2c1)CNCC3 ... 312 to 315 °C
Cl.O=S(=O)(c1ccccc1)c1ccc2oc3c(c2c1)CNCC3 ... 243 °C

### Prompt Give reported melting point value for "CN1CCc2oc3ccc(S(=O)(=O)c4ccccc4)cc3c2C1.Cl"
### Response 272 °C

### Prompt Give reported melting point value for CC(c1ccccc1)c1cc(Cl)c2oc3c(c2c1)CNCC3.Cl (stereo not drawn)
### Response 245 to 255 °C (dec.)

### Prompt Give reported melting point value for "Cl.O=S(=O)(c1cc(F)cc(F)c1)c1ccc2oc3c(c2c1)CNCC3"
### Response 275 to 281 °C (dec.)

----------
Measured Ki by item
# system tested: human 5-HT6 receptor (Homo sapiens (Human), UniProt P50406)
# assay comment: 5-HT6 radioligand binding assay (SPA format, [N-methyl-3H]-LSD)
# study conditions: human 5-HT6 receptor membranes, 10 nM [N-methyl-3H]-LSD; Ki by Cheng-Prusoff; read-out: human 5HT6 Ki
Output spec: scalar in µM, unitless text.

Some solved cases for reference:
O=S(=O)(c1ccc(F)cc1)c1cc(F)c2oc3c(c2c1)CNCC3 [Example 207] ... 0.044
COc1cc(S(=O)(=O)c2cccc(OC(F)(F)F)c2)cc2c3c(oc12)CCNC3 [Example 168] ... 0.00019
O=S(=O)(c1cc(F)cc(Cl)c1)c1cc(Cl)c2oc3c(c2c1)CNCC3 [Example 125] ... 0.0023
C[C@H](O)c1cccc(S(=O)(=O)c2cc(Cl)c3oc4c(c3c2)CNCC4)c1 [Example 138] ... 0.0051
N#Cc1cc(S(=O)(=O)c2ccccc2)cc2c3c(oc12)CCNC3 [Example 210] ... 0.0042
Cl.O=S(=O)(c1ccc2oc3c(c2c1)C1CCC(C3)N1)n1ccc2ccc(F)cc21 (centres unmarked) [Example 59, hydrochloride] ... 0.017

### Prompt Give reported Ki value for Cl.O=S(=O)(c1cccc(C(F)(F)F)c1)c1ccc2oc3c(c2c1)C1CCC(C3)N1 (centres unmarked) [Example 55, hydrochloride]
### Response 0.053

### Prompt Give reported Ki value for CC(O)Cc1cc(S(=O)(=O)c2ccccc2)cc2c3c(oc12)CCNC3.Cl (centres unmarked) [Example 80, hydrochloride]
### Response 0.019
